tested on: Mycobacterium aurum NCTC 10437; assay: agar diffusion test, growth inhibition zones
Quick reference for Growth inhibition zones among some compounds
Express your answer as a number followed by its unit.

Consider the worked cases shown below.
SMILES REPRESENTATION: O=[N+]([O-])c1ccc(-c2nc3cc(Cl)ccc3[nH]2)o1
OBSERVED RESULT: 13 mm
--
SMILES REPRESENTATION: O=[N+]([O-])c1ccc(-c2nc3cc(F)ccc3[nH]2)o1
OBSERVED RESULT: 35 mm
--
SMILES REPRESENTATION: O=[N+]([O-])c1ccc(-c2nc3cc(C(F)(F)F)ccc3[nH]2)o1
OBSERVED RESULT: 22 mm
--
SMILES REPRESENTATION: O=[N+]([O-])c1ccc(-c2nc3ccccc3[nH]2)o1
OBSERVED RESULT: 24 mm
--
SMILES REPRESENTATION: Cc1ccc2[nH]c(-c3ccc([N+](=O)[O-])o3)nc2c1
OBSERVED RESULT: 13 mm

Now for a further compound.
Can you share its Growth inhibition zones? I mean this compound: O=[N+]([O-])c1ccc2[nH]c(-c3ccc([N+](=O)[O-])o3)nc2c1 15 mm

====

test system: Candida albicans PCA6; assay: agar diffusion test, growth inhibition zones; assay type: cell-based
Quick reference for Growth inhibition zones among some compounds
Report only the number, with the unit mm understood.

SMILES REPRESENTATION: Cc1ccc2[nH]c(-c3ccc([N+](=O)[O-])o3)nc2c1
OBSERVED RESULT: 32
--
SMILES REPRESENTATION: O=[N+]([O-])c1ccc(-c2nc3cc(Cl)ccc3[nH]2)o1
OBSERVED RESULT: 22
--
SMILES REPRESENTATION: O=[N+]([O-])c1ccc(-c2nc3ccccc3[nH]2)o1
OBSERVED RESULT: 40
--
SMILES REPRESENTATION: O=[N+]([O-])c1ccc(-c2nc3cc(F)ccc3[nH]2)o1
OBSERVED RESULT: 34

Can you share its Growth inhibition zones? I mean this compound: O=[N+]([O-])c1ccc(-c2nc3cc(C(F)(F)F)ccc3[nH]2)o1 23

====

test: acute toxicity (LD50) in mice; conditions: mouse, in vivo, iv; CD1 mice
METRIC NAME: LD50
Express your answer as a number followed by its unit.

Can you share its LD50? I mean this molecule: O=[N+]([O-])c1ccc(-c2nc3cc(F)ccc3[nH]2)o1 240 mg/kg

====

Quick reference for Growth inhibition zones among some compounds
test system: Enterobacter aerogenes ATCC 13047; experiment: agar diffusion test, growth inhibition zones; assay type: cell-based
Report only the number, with the unit mm understood.

SMILES REPRESENTATION: O=[N+]([O-])c1ccc(-c2nc3ccccc3[nH]2)o1
Growth inhibition zones / mm: 18

Can you share its Growth inhibition zones? I mean this compound: Cc1ccc2[nH]c(-c3ccc([N+](=O)[O-])o3)nc2c1 16

Now this one: O=[N+]([O-])c1ccc2[nH]c(-c3ccc([N+](=O)[O-])o3)nc2c1 14

Now this one: O=[N+]([O-])c1ccc(-c2nc3cc(Cl)ccc3[nH]2)o1 12

====

test system: Salmonella tiphymurium ATCC 13311; experiment: agar diffusion test, growth inhibition zones; type: cell-based
METRIC NAME: Growth inhibition zones (mm)
Report only the number, with the unit mm understood.

Consider the worked cases shown below.
MOLECULE: O=[N+]([O-])c1ccc(-c2nc3cc(Cl)ccc3[nH]2)o1 [Es. 6]
OBSERVED RESULT: 14

MOLECULE: O=[N+]([O-])c1ccc2[nH]c(-c3ccc([N+](=O)[O-])o3)nc2c1 [Es. 4]
OBSERVED RESULT: 15

MOLECULE: O=[N+]([O-])c1ccc(-c2nc3cc(C(F)(F)F)ccc3[nH]2)o1 [Es. 5]
OBSERVED RESULT: 13

MOLECULE: O=[N+]([O-])c1ccc(-c2nc3cc(F)ccc3[nH]2)o1 [Es. 3]
OBSERVED RESULT: 23

MOLECULE: O=[N+]([O-])c1ccc(-c2nc3ccccc3[nH]2)o1 [Es. 1, 2-(5'-nitro-2'-furyl)-benzimidazole]
OBSERVED RESULT: 20

Can you share its Growth inhibition zones? I mean this molecule: Cc1ccc2[nH]c(-c3ccc([N+](=O)[O-])o3)nc2c1 [Es. 2] 12
